These entries and their values trace back to ChEMBL document CHEMBL6074649.

inhibition at 125 µM reference
System: MCF7
ASSAY_TEXT: Anticancer activity against human MCF7 cells at 125 uM relative to control
Type: functional
Please reply with the bare figure in % and do not write the unit itself.

QUERY_SMILES: Fc1ccc(Cn2c(-c3ccc(Cl)cc3)nc(-c3ccccc3)c2-c2ccccc2)cc1
MEASUREMENT_UNIT: %
inhibition at 125 µM: 24
//
QUERY_SMILES: Cc1ccc(-c2nc(-c3ccccc3)c(-c3ccccc3)n2Cc2ccc(F)cc2)cc1
MEASUREMENT_UNIT: %
inhibition at 125 µM: 29
//
QUERY_SMILES: COc1ccc(-c2nc(-c3ccccc3)c(-c3ccccc3)n2Cc2ccc(F)cc2)cc1
MEASUREMENT_UNIT: %
inhibition at 125 µM: 39

Input: Consider the molecule `Fc1ccc(Cn2c(-c3ccc(Br)cc3)nc(-c3ccccc3)c2-c2ccccc2)cc1` and give its measured inhibition at 125 µM.
Output: 20

----------
ASSAY_TEXT: Cytotoxicity against HUVEC cells
Format: toxicity, cell-based
PARTICULARS: human
MEASURED_QUANTITY: pIC50
# pIC50 = -log10(concentration in molar units)

MOLECULE: S=c1[nH]c(-n2nnc3ccccc32)cn1-c1ccc(Cl)cc1Cl
READOUT_NUMBER: 4.87

Attention now shifts to the item below.
Input: Consider the molecule COc1ccc(/C=C\c2cc(OC)c(OC)c(OC)c2)cc1O [COMBRETASTATIN A4] and give its measured pIC50.
Output: 3.92

----------
inhibition at 15.6 µM reference
System: MCF7
ASSAY_TEXT: Anticancer activity against human MCF7 cells at 15.6 uM relative to control
Assay type: functional
Please reply with the bare figure in % and do not write the unit itself.

These recorded examples may help you get a feel for the data.
QUERY_SMILES: Cc1ccc(-c2nc(-c3ccccc3)c(-c3ccccc3)n2Cc2ccc(F)cc2)cc1
TGT: MCF7
inhibition at 15.6 µM / %: 53
//
QUERY_SMILES: Fc1ccc(Cn2c(-c3ccc(Cl)cc3)nc(-c3ccccc3)c2-c2ccccc2)cc1
TGT: MCF7
inhibition at 15.6 µM / %: 55
//
QUERY_SMILES: COc1ccc(-c2nc(-c3ccccc3)c(-c3ccccc3)n2Cc2ccc(F)cc2)cc1
TGT: MCF7
inhibition at 15.6 µM / %: 65

Attention now shifts to the item below.
Input: Consider the molecule `Fc1ccc(Cn2c(-c3ccc(Br)cc3)nc(-c3ccccc3)c2-c2ccccc2)cc1` and give its measured inhibition at 15.6 µM.
Output: 36

----------
pIC50 reference
Test system: MCF7
ASSAY_TEXT: Cytotoxicity against human MCF7 cells assessed as reduction in cell growth incubated for 24 hrs by MTT assay
Type: functional, cell-based
PARTICULARS: MCF7, 24 h
# pIC50 = -log10(concentration in molar units)

QUERY_SMILES: S=c1[nH]c(-n2nnc3ccccc32)cn1-c1ccc(Cl)cc1Cl
pIC50: 6.24

Input: Consider the compound `COc1ccc(/C=C\c2cc(OC)c(OC)c(OC)c2)cc1O` and give its measured pIC50.
Output: 5.45

----------
System: PANC-1
ASSAY_TEXT: Antiproliferative activity against human PANC-1 cells by MTT assay
Assay type: functional, cell-based
MEASURED_QUANTITY: IC50
The answer should read as a number with its unit following.

These recorded examples may help you get a feel for the data.
QUERY_SMILES: COc1cccc2c1C(=O)c1c(O)c3c(c(O)c1C2=O)C[C@@](O)(C(=O)CO)C[C@@H]3O[C@H]1C[C@H](N)[C@H](O)[C@H](C)O1
TGT: PANC-1
IC50: 1400 nM
//
QUERY_SMILES: NS(=O)(=O)c1ccc(-n2c(-c3ccccc3Br)nc(-c3ccccc3)c2-c2ccccc2)cc1
TGT: PANC-1
IC50: 2500 nM

Input: Consider the compound `COc1ccccc1-c1nc(-c2ccccc2)c(-c2ccccc2)n1-c1ccc(S(N)(=O)=O)cc1` and give its measured IC50.
Output: 2200 nM
